biological target: Retinoic acid receptor RXR-alpha (Homo sapiens); experiment: qHTS assay for small molecule antagonists of retinoid X receptor alpha signaling (AID 588546); conditions: HEK293T RXRa-UAS-bla, beta-lactamase ratio, antagonist mode;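 further: cells stimulated with 9-cis-retinoic acid as agonist; on the % scale 0 is the no-effect control and ±100 the full control effect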
Results filed as inconclusive are left out.
Each entry below lists one item and its recorded max response value.
Quantity name: max response (%)

Molecule	Target desc	Quantity name	Reported value
C[C@]12CCC(=O)C=C1CC[C@@H]1[C@@H]2[C@@H](O)C[C@@]2(C)[C@H]1CC[C@]2(O)C(=O)CO	Retinoic acid receptor RXR-alpha (Homo sapiens)	max response	-13.2
COc1ccc2nc(S(=O)Cc3ncc(C)c(OC)c3C)[nH]c2c1 (stereo not drawn)	Retinoic acid receptor RXR-alpha (Homo sapiens)	max response	-42
O=c1[nH]cnc2[nH]ncc12	Retinoic acid receptor RXR-alpha (Homo sapiens)	max response	-1.1
Cc1ccccc1C(OCCN(C)C)c1ccccc1 (stereo not drawn)	Retinoic acid receptor RXR-alpha (Homo sapiens)	max response	-11.6
Cc1[nH]c(=O)c(C#N)cc1-c1ccncc1	Retinoic acid receptor RXR-alpha (Homo sapiens)	max response	-8.79
O=C1CCC(N2C(=O)c3ccccc3C2=O)C(=O)N1 (stereo not drawn)	Retinoic acid receptor RXR-alpha (Homo sapiens)	max response	-2.36
NC(N)=NC(=O)c1nc(Cl)c(N)nc1N	Retinoic acid receptor RXR-alpha (Homo sapiens)	max response	33
NC[C@H](O)c1ccc(O)c(O)c1	Retinoic acid receptor RXR-alpha (Homo sapiens)	max response	-6.6
